Test: Plasma concentration of test compound in xenograft mice
Format: in vivo, mouse
Conditions: mouse, plasma, oral; 100 mg/kg orally once daily for 3 weeks, tumor bearing mice; read-out: Test compound concentrations in plasma 8 h after last dose, Mean ± SD
value type: concentration at 8 h (ng/mL)

1) Cc1nc(C)c(-c2ccc(=O)n(CC3CCN(c4ncnc5ncccc45)CC3)n2)s1
230

----------
Experiment: Plasma concentration of test compound in xenograft mice
Assay type: in vivo, mouse
Settings: mouse, plasma, oral; 35 mg/kg orally once daily for 3 weeks, tumor bearing mice; read-out: Test compound concentrations in plasma 8 h after last dose, Mean ± SD
value type: concentration at 8 h (ng/mL)

1) Cc1nc(C)c(-c2ccc(=O)n(CC3CCN(c4ncnc5ncccc45)CC3)n2)s1 [test compound]
42.6

// provenance: patent US20250368623A1
